TEST_SYSTEM: T1, monomeric human CTLA-4 (human, UniProt P16410 36-161, limits assumed)
T1 construct: Soluble monomeric analyte in SPR; also called huCTLA-4
T1 sequence: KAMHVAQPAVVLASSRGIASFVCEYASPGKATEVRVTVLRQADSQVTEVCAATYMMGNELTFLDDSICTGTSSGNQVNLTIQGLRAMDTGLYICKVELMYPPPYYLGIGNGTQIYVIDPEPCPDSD
EXPERIMENT_SUMMARY: SPR, captured Fab, pH 6.0
QUANTITY_MEASURED: kon (M⁻¹ s⁻¹)
Numeric only. Scale: M⁻¹ s⁻¹

ipi.92 Fab (Fab, V domains shown, Tested as monovalent Fab) VH: QVQLVESGGGVVQPGRSLRLSCAASGFTFSHYTMHWVRQAPGKGLEWVTFISYDGHNKYYADSVKGRFTISRDNSKNTLYLQMNSLRAEDTAIYYCARHGWLGPFDYWGQGTLVTVSS VL: EIVLTQSPGTLSLSPGERATLSCRASQEVGDSELAWYQQKPGQAPRLLIYGAFSRATGIPDRFSGSGSGTDFTLTISRLEPEDFAVYYCQQYGSSPWTFGQGTKVEIKR: 1.8e+06

Alright, here's another binder for you.
Prompt: Form field: reported kon of ipi.105 Fab (Fab, V domains shown, Tested as monovalent Fab) VH: QVQLVESGGGVVQPGRSLRLSCAASGFTFSHYTMHWVRQAPGKGLEWVTFISYDGHNKYYADSVKGRFTISRDNSKNTLYLQMNSLRAEDTAIYYCARTGWLGPFDYWGQGTLVTVSS VL: EIVLTQSPGTLSLSPGERATLSCRASQEVGESELAWYQQKPGQAPRLLIYGAFSRATGIPDRFSGSGSGTDFTLTISRLEPEDFAVYYCQQYGSSPWTFGQGTKVEIKR
Completion: 1.3e+06
